Assay: Retina levels after topical versus oral dosing over seven days (Example 9)
Conditions: albino, rabbit, in vivo, 1.76 mg/kg/day
Where a name gives a salt, the structure may show the parent alone.
Quantity kind: concentration at 7 days (ng/mL)
Response body: numeric value in ng/mL, unit text excluded.

# concentration at 7 days (compound: CC12CC3CC(C)(C1)CC(N)(C3)C2 [memantine, hydrochloride] ) is 100

----------
Test: in vivo
Details: rabbit, po, 2 mg/kg
Counter-ions that a name gives are not always drawn.
Quantity kind: concentration at 7 days
Field: value (include unit after the number)

The reported concentration at 7 days of the compound CC12CC3CC(C)(C1)CC(N)(C3)C2 [memantine, hydrochloride] was 107 ng/mL

Values compiled from patent US20050031652A1.
